Measured EC50 of individual entries
- Tested on: HMPV clinical isolate TN/1501/A1
- method notes: HMPV antiviral assay Method-B (clinical isolate TN/1501/A1 in LLC-MK2 cells, ATP-Lite readout)
- Assay type: cell-based, Human metapneumovirus (HMPV)
- recorded conditions: human metapneumovirus, LLC-MK2, 144 h, hMPV WT1501 (clinical isolate TN/1501/A1), 6 days

compound	EC50
C[C@]1(C(N)=O)COc2c1cc([C@@](O)(CNC(=O)c1cc(OC3CC3)n3nc(C4CC4)cc3c1)C1CC1)nc2-c1ccc2c(c1)OC(F)(F)O2 [Example 822]	< 500 nM

Query string: State the recorded EC50 for this entry: C[C@]1(C(N)=O)COc2c1cc([C@@](O)(CNC(=O)c1cc(F)c3nn(C(F)F)cc3c1)C1CC1)nc2-c1ccc(F)c(Cl)c1F [Example 571]
Result string: < 500 nM

Query string: State the recorded EC50 for this entry: COc1cc(C(=O)NC[C@](O)(c2cc3c(c(-c4ccc(F)cc4)n2)OC[C@]3(C)C(N)=O)C2(F)CC2)cc2cc(Cl)c(C)nc12 [Example 707]
Result string: < 500 nM

Query string: State the recorded EC50 for this entry: C[C@]1(C(N)=O)COc2c1cc([C@@](O)(CNC(=O)c1ccc3nn(C4CC4)cc3c1)C1CC1)nc2-c1cccc(Br)c1F [Example 1100]
Result string: < 500 nM

Query string: State the recorded EC50 for this entry: COc1cc(C(=O)NC[C@](O)(c2cc3c(c(-c4ccc5c(c4)OC(F)(F)O5)n2)OC[C@]3(C(N)=O)C(F)F)C(F)(F)F)cc2cn(C3CC3)nc12 [Example 1034]
Result string: > 500 nM

Query string: State the recorded EC50 for this entry: COc1cc(C(=O)NC[C@](O)(c2cc3c(c(-c4cc(Cl)c(F)cc4F)n2)OC[C@]3(C)C(N)=O)C2CC2)cc2cn(C3CC3)nc12 [Example 661]
Result string: < 500 nM
